Answer each item with its documented melting point.

CC1Cc2ccc(Br)cc2C(c2ccc([N+](=O)[O-])cc2)O1 (stereo unspecified) = 130 to 133 °C

Could you tell me melting point for each of these compounds? They are listed below.
1. C=CC(c1ccc(F)cc1)c1c(C)c(NC=O)c(C)c(C)c1O (stereo unspecified)
2. c1ccc2c(c1)Nc1cc(-c3csc(CN4CCSCC4)n3)ccc1S2
3. CCOC(=O)C(=CNc1cc(C)nn1-c1ccccc1)C(=O)OCC
4. Nc1n[nH]c2cccc(I)c12
5. S=C(Nc1cccc(Br)c1)N1CCCSC1c1ccccc1 (stereo unspecified)
6. COc1ccc(CCNCC(O)c2ccccc2OC)cc1OC (stereo unspecified)

Return:
1: 168 to 170 °C; 2: 229 to 231 °C; 3: 70 to 72 °C; 4: 153 °C; 5: 135 to 137 °C; 6: 88 °C

Could you tell me melting point for each of these compounds? They are listed below.
1. O=C1c2ccccc2C(=O)N1OCc1c(Cl)cccc1Cl
2. COc1cc(OC)c2cc(-c3ccc(F)cc3)oc2c1
3. COC(=O)c1cc(OC)cc(OC)c1N
4. CCOC(=O)CC(=O)c1cc(F)c(F)c(Br)c1F
5. CSc1cc(SC)c(SC)cc1SC
6. CCCCC(=O)N(Cc1ccc(Br)cc1)[C@H](C(=O)O)C(C)C

Return:
1. 201 to 206 °C
2. 142 to 143 °C
3. 93 to 95 °C
4. 85 to 88 °C
5. 127 to 129 °C
6. 123 °C

Could you tell me melting point for each of these compounds? They are listed below.
1. O=C1CNC(=O)N1c1ccc([N+](=O)[O-])cc1
2. CS(=O)(=O)c1ccc(-n2cnc(Cl)c2-c2ccc(OC(F)(F)F)cc2)cc1
3. CCC(O)Cn1c(Cl)nc2ccccc21 (stereo unspecified)
4. COc1cc(COc2nn(Cc3ccccc3)cc2CO)ccc1OCc1nc(-c2ccccc2)oc1C
5. Cc1c(Cc2cccc(C(F)(F)F)c2F)c2ccc(Cl)c(Cl)c2n1CCCNS(C)(=O)=O
6. Cc1csc2nc(-c3ccc(C(=O)O)cc3)nc(NCc3ccccc3)c12

Return:
["250 to 251 °C", "136 to 138 °C", "126 °C", "90 to 91 °C", "139 °C", "270 °C"]

Could you tell me melting point for each of these compounds? They are listed below.
1. CC1=CC(C=O)(NC(c2ccccc2)(c2ccccc2)c2ccccc2)NC=C1 (stereo unspecified)
2. COc1ccnc(C(=O)N[C@H]2COC(=O)[C@H](CCOC(=O)c3ccccc3)[C@@H](OC(=O)C(C)C)[C@H](C)OC2=O)c1OCOC(=O)C(C)C
3. CCOc1nc(Nc2ccc(F)c(F)c2)nc(NC2CCN(S(=O)(=O)c3ccc(F)cc3)CC2)n1
4. O=C(CSc1nc2ccccc2[nH]1)c1ccc2[nH]c3ncc(Cl)cc3c2c1
5. Nc1cnn(-c2cccc(C(F)(F)F)c2)c(=O)c1-c1cccc(C(F)(F)F)c1

Return:
1: 213 °C; 2: 48 to 50 °C; 3: 240 to 242 °C; 4: 209 to 210 °C; 5: 68 to 70 °C
